Listed here: items and their measured MIC.
Test system: M. smegmatis ATCC700084
Experiment: MIC assay (REMA)
Type: cell-based, Mycobacterium smegmatis
Details: Mycolicibacterium smegmatis, ATCC700084, REMA microdilution, n = 2–3
# unit: µM | format: bare number

Reference set, count: 3
{"columns": ["MOLECULE SMILES", "STUDY SYSTEM", "RECORDED ENDPOINT", "OBSERVED"],
 "data": [
  ["CC(=O)Nc1ccc2c(c1)C(=O)/C(=C/c1cccc(F)c1)O2", "M. smegmatis ATCC700084", "MIC", 100],
  ["Nc1ccc2c(c1)C(=O)/C(=C/c1cccc(Oc3ccccc3)c1)O2", "M. smegmatis ATCC700084", "MIC", 50],
  ["CC(=O)Nc1ccc2c(c1)C(=O)/C(=C/c1cccc(OCc3ccccc3)c1)O2", "M. smegmatis ATCC700084", "MIC", 50]
]}

Now take the following compound into account.
Consider the compound COc1cccc(/C=C2\Oc3ccc(NC(C)=O)cc3C2=O)c1 and give its recorded MIC.
100

----------
Test system: human cells (A498, BEAS-2B, Caco-2, HaCaT, HepG2, IMR-90)
Assay: Cytotoxic assay, summary over the six human cell types
Details: lowest CC50 on human cells divided by MIC on S. aureus
Listed here: items and their measured Lowest TI.
Write the number on its own, no unit after it.

Consider the molecule CC(=O)Nc1ccc2c(c1)C(=O)/C(=C/c1ccc(Oc3ccccc3)cc1)O2 [Compound 15] and give its recorded Lowest TI.
1.0

Consider the molecule CC(=O)Nc1ccc2c(c1)C(=O)/C(=C/c1cccc(OCc3ccccc3)c1)O2 [Compound 10] and give its recorded Lowest TI.
13.5

Consider the molecule Nc1ccc2c(c1)C(=O)/C(=C/c1cccc(OCc3ccccc3)c1)O2 [Compound 12] and give its recorded Lowest TI.
0.4

Consider the molecule Nc1ccc2c(c1)C(=O)/C(=C/c1cccc(Oc3ccccc3)c1)O2 [Compound 16] and give its recorded Lowest TI.
3.2

----------
RECORDED ENDPOINT: melting point (°C)
# unit: °C | format: bare number

{"columns": ["MOLECULE SMILES", "melting point, °C"],
 "data": [
  ["CC(=O)Nc1ccc2c(c1)C(=O)/C(=C/c1cccc(F)c1)O2", 243.6],
  ["CC(=O)Nc1ccc2c(c1)C(=O)/C(=C/c1cccc(OCc3ccccc3)c1)O2", 204.5],
  ["CC(C)Oc1cccc(/C=C2\\Oc3ccc(N)cc3C2=O)c1", 198.4],
  ["Nc1ccc2c(c1)C(=O)/C(=C/c1cccc(Oc3ccccc3)c1)O2", 145.6],
  ["Nc1ccc2c(c1)C(=O)/C(=C/c1ccc(OCc3ccccc3)cc1)O2", 141.6],
  ["COc1ccc(/C=C2\\Oc3ccc(NC(C)=O)cc3C2=O)cc1", 252]
]}

Consider the compound COc1cccc(/C=C2\Oc3ccc(NC(C)=O)cc3C2=O)c1 and give its recorded melting point.
204.2

Consider the compound CC(=O)Nc1ccc2c(c1)C(=O)/C(=C/c1ccc(Oc3ccccc3)cc1)O2 and give its recorded melting point.
213.5

Consider the compound Nc1ccc2c(c1)C(=O)/C(=C/c1cccc(OCc3ccccc3)c1)O2 and give its recorded melting point.
132.6

----------
Test system: E. coli ATCC8739
Experiment: MIC assay
Assay type: cell-based, Escherichia coli
Settings: Escherichia coli, ATCC8739; two-fold serial dilutions in liquid media; n = 2–3
RECORDED ENDPOINT: MIC

{"columns": ["COMPOUND", "MIC"],
 "data": [
  ["CC(=O)Nc1ccc2c(c1)C(=O)/C(=C/c1ccc(OCc3ccccc3)cc1)O2 [Compound 11]", "> 100 µM"]
]}

Consider the compound CC(C)Oc1ccccc1/C=C1\Oc2ccc(N)cc2C1=O [Compound 21] and give its recorded MIC.
> 100 µM

Consider the compound CO/N=C1\CN(c2nc3c(cc2F)c(=O)c(C(=O)O)cn3C2CC2)CC1CN (stereo not drawn) [Gemifloxacin, reference compound] and give its recorded MIC.
0.06 µM

Consider the compound CC(C)Oc1cccc(/C=C2\Oc3ccc(N)cc3C2=O)c1 [Compound 22] and give its recorded MIC.
> 100 µM

Consider the compound Nc1ccc2c(c1)C(=O)/C(=C/c1cccc(Oc3ccccc3)c1)O2 [Compound 16] and give its recorded MIC.
25 µM

Consider the compound Nc1ccc2c(c1)C(=O)/C(=C/c1cccc(OCc3ccccc3)c1)O2 [Compound 12] and give its recorded MIC.
> 100 µM

Consider the compound CC(=O)Nc1ccc2c(c1)C(=O)/C(=C/c1ccc(C(=O)O)cc1)O2 [Compound 31] and give its recorded MIC.
> 100 µM

Consider the compound Nc1ccc2c(c1)C(=O)/C(=C/c1cccc(C(F)(F)F)c1)O2 [Compound 30] and give its recorded MIC.
> 100 µM

Consider the compound COc1cccc(/C=C2\Oc3ccc(NC(C)=O)cc3C2=O)c1 [Compound 5] and give its recorded MIC.
> 100 µM
